B1: MMP1 (parent)
chain: YTPDLPRADVDHAIEKAFQLWSNV

Variants of: B1
protocol.text: protein stability index of a GFP-peptide fusion (GPS, HEK-293T) (PSI 1-6); higher = more stable;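 also: lentivirally expressed fusions sorted by FACS into six bins by GFP to DsRed ratio, PSI derived from sequencing read proportions per bin multiplied by bin number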
setup.conditions: c terminus: a fixed tail appended
Catalogue of variants with associated protein stability index

{"columns": ["mutant.label", "protein stability index"],
 "data": [
  ["D4P", 1.99],
  ["A8M", 1.74],
  ["A13S", 1.89],
  ["V10L", 1.27]
]}
